Target: Amine oxidase [flavin-containing] B (Rattus norvegicus)
Assay: Inhibition of Sprague-Dawley rat MAO-B using Kynuramine as substrate assessed as formation of 4-hydroxyquinoline preincubated for 5 mins prior to substrate addition measured for 5 mins by spectrophotometry
Conditions: read-out: pIC50 (converted)
Value type: IC50
Number plus unit, in that order.

// recorded IC50 for `O=C(COc1cc(=O)oc2cc(OCc3cccc(Cl)c3)ccc12)N1CCOCC1` : 12900 nM

// recorded IC50 for `O=c1cc(Oc2ccccc2)c2ccc(OCc3cccc(Cl)c3)cc2o1` : 4070 nM

// recorded IC50 for `CSCOc1cc(=O)oc2cc(OCc3cccc(Cl)c3)ccc12` : 316 nM

// recorded IC50 for `CCCOc1cc(=O)oc2cc(OCc3cccc(Cl)c3)ccc12` : 61.7 nM

// recorded IC50 for `CC(=O)c1cc(=O)oc2cc(OCc3cccc(Cl)c3)ccc12` : 39.8 nM

// recorded IC50 for `O=c1cc(CO)c2ccc(OCc3cccc(Br)c3)cc2o1` : 14.1 nM

// recorded IC50 for `CCCOc1cc(=O)oc2cc(OCc3cccc(F)c3)ccc12` : 407 nM

// recorded IC50 for `CCOc1cc(=O)oc2cc(OCc3cccc(F)c3)ccc12` : 263 nM

// recorded IC50 for `CCCOc1cc(=O)oc2cc(OCc3cccc(Br)c3)ccc12` : 74.1 nM

// recorded IC50 for `COc1cc(=O)oc2cc(OCc3ccccc3)ccc12` : 100 nM

// recorded IC50 for `O=c1cc(CO)c2ccc(OCc3cccc(Cl)c3)cc2o1` : 5.25 nM

// recorded IC50 for `O=c1cc(CN2CCCC2)c2ccc(OCc3cccc(Cl)c3)cc2o1` : 1700 nM

// recorded IC50 for `Nc1cc(=O)oc2cc(OCc3cccc(Cl)c3)ccc12` : 47.9 nM

// recorded IC50 for `CCOc1cc(=O)oc2cc(OCc3cccc(Br)c3)ccc12` : 126 nM

// recorded IC50 for `O=c1cc(Cl)c2ccc(OCc3cccc(Cl)c3)cc2o1` : 20.9 nM

// recorded IC50 for `CCCCNCc1cc(=O)oc2cc(OCc3cccc(Cl)c3)ccc12` : 447 nM

// recorded IC50 for `O=c1cc(O)c2ccc(OCc3cccc(F)c3)cc2o1` : 2090 nM

// recorded IC50 for `CC(=O)COc1cc(=O)oc2cc(OCc3cccc(Cl)c3)ccc12` : 26.9 nM

// recorded IC50 for `O=c1cc(C(F)(F)F)c2ccc(OCc3cccc(Cl)c3)cc2o1` : 871 nM

// recorded IC50 for `CCc1cc(=O)oc2cc(OCc3cccc(Cl)c3)ccc12` : 28.8 nM

// recorded IC50 for `N#Cc1cc(=O)oc2cc(OCc3cccc(Cl)c3)ccc12` : 102 nM

// recorded IC50 for `CCCNCc1cc(=O)oc2cc(OCc3cccc(Cl)c3)ccc12` : 204 nM

// recorded IC50 for `CNCc1cc(=O)oc2cc(OCc3cccc(Br)c3)ccc12` : 11 nM

// recorded IC50 for `CC(C)Nc1cc(=O)oc2cc(OCc3cccc(Cl)c3)ccc12` : 7760 nM

---

Target: Amine oxidase [flavin-containing] B (Rattus norvegicus, UniProt P19643)
Sequence (P19643 whole entry): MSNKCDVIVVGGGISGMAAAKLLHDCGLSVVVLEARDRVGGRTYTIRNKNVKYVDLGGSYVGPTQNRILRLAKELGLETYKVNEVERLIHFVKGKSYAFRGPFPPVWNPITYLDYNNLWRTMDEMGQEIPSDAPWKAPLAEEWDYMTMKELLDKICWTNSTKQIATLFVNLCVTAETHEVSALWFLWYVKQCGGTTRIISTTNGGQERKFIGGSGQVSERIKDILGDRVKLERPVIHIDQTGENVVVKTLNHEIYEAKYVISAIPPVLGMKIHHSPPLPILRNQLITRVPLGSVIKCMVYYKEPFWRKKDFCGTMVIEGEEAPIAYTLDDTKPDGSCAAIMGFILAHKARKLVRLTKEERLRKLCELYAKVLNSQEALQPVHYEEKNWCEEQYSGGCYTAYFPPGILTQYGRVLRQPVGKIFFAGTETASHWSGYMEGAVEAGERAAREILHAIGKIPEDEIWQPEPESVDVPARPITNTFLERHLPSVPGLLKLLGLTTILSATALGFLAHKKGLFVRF
Test: Inhibition of Sprague-Dawley rat MAO-B using Kynuramine as substrate assessed as formation of 4-hydroxyquinoline preincubated for 5 mins prior to substrate addition measured for 5 mins by spectrophotometry
Settings: read-out: pIC50 (converted)
Label scheme, based on IC50: LOW (below 40 nM), MID (40 nM to below 200 nM), HIGH (200 nM or more)

Prompt line: Place this compound in its band: `CCNc1cc(=O)oc2cc(OCc3cccc(Cl)c3)ccc12`
Response line: LOW

Prompt line: Place this compound in its band: `CCOc1cc(=O)oc2cc(OCc3ccccc3)ccc12`
Response line: HIGH

Prompt line: Place this compound in its band: `CNc1cc(=O)oc2cc(OCc3cccc(Cl)c3)ccc12`
Response line: LOW

Prompt line: Place this compound in its band: `NC(=O)COc1cc(=O)oc2cc(OCc3cccc(Cl)c3)ccc12`
Response line: LOW

Prompt line: Place this compound in its band: `COc1cc(=O)oc2cc(OCc3cccc(F)c3)ccc12`
Response line: LOW

Prompt line: Place this compound in its band: `O=Cc1cc(=O)oc2cc(OCc3cccc(Cl)c3)ccc12`
Response line: MID

Prompt line: Place this compound in its band: `O=c1cc(O)c2ccc(OCc3cccc(Cl)c3)cc2o1`
Response line: HIGH

Prompt line: Place this compound in its band: `O=c1cc(O)c2ccc(OCc3ccccc3)cc2o1`
Response line: HIGH

Prompt line: Place this compound in its band: `NC(=O)COc1cc(=O)oc2cc(OCc3cccc(Br)c3)ccc12`
Response line: LOW

Prompt line: Place this compound in its band: `N#CCOc1cc(=O)oc2cc(OCc3cccc(Cl)c3)ccc12`
Response line: MID

Prompt line: Place this compound in its band: CC(O)c1cc(=O)oc2cc(OCc3cccc(Cl)c3)ccc12 (centres undefined)
Response line: MID

Prompt line: Place this compound in its band: `O=c1cc(Nc2ccccc2)c2ccc(OCc3cccc(Cl)c3)cc2o1`
Response line: HIGH

Prompt line: Place this compound in its band: `CCOc1cc(=O)oc2cc(OCc3cccc(Cl)c3)ccc12`
Response line: MID

Prompt line: Place this compound in its band: `CCOC(=O)Nc1cc(=O)oc2cc(OCc3cccc(Cl)c3)ccc12`
Response line: HIGH

Prompt line: Place this compound in its band: `CNC(=O)COc1cc(=O)oc2cc(OCc3cccc(Cl)c3)ccc12`
Response line: LOW

Prompt line: Place this compound in its band: `O=C(COc1cc(=O)oc2cc(OCc3cccc(Cl)c3)ccc12)N1CCCCC1`
Response line: HIGH

Prompt line: Place this compound in its band: `O=c1cc(/C=N/O)c2ccc(OCc3cccc(Cl)c3)cc2o1`
Response line: HIGH

Prompt line: Place this compound in its band: `CC(C)Oc1cc(=O)oc2cc(OCc3cccc(Cl)c3)ccc12`
Response line: HIGH

Prompt line: Place this compound in its band: `NC(=O)c1cc(=O)oc2cc(OCc3cccc(Cl)c3)ccc12`
Response line: HIGH

Prompt line: Place this compound in its band: `COc1cc(=O)oc2cc(OCc3cccc(Cl)c3)ccc12`
Response line: LOW

Prompt line: Place this compound in its band: `Cc1cc(=O)oc2cc(OCc3cccc(Cl)c3)ccc12`
Response line: LOW

Prompt line: Place this compound in its band: `COCOc1cc(=O)oc2cc(OCc3cccc(Cl)c3)ccc12`
Response line: MID

Prompt line: Place this compound in its band: `O=c1cc(CCl)c2ccc(OCc3cccc(Br)c3)cc2o1`
Response line: HIGH
